# tested target: Somatostatin receptor type 4 (Homo sapiens, UniProt P31391)
# Sequence (P31391 whole entry): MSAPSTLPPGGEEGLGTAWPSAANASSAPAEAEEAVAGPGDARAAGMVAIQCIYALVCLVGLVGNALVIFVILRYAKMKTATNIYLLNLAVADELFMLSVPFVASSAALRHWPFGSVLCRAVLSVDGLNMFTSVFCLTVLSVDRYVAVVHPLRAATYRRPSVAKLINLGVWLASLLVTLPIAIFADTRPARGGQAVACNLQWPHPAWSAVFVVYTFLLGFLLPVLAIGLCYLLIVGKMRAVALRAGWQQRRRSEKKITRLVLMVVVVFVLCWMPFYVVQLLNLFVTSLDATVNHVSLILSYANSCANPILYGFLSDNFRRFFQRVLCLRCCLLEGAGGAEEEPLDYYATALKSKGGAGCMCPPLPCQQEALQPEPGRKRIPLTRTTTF
# method: Displacement of [125I]somatostatin-14 (Tyr11) from human SSTR4 expressed in CHO dhfr cell membranes after 60 mins by TopCount scintillation counting method
property name: IC50 (nM)
Enter your answer as a number in nM; do not include the unit.

IN: Please list IC50 recorded for the compound Cc1cc(F)ccc1N1CCN(C(=O)N[C@@H](C(=O)Nc2cc(CN(C)C)ccc2OC(F)(F)F)[C@@H](C)c2c[nH]c3ccccc23)CC1=O
OUT: 100

----------
# tested target: Somatostatin receptor type 5 (Homo sapiens, UniProt P35346)
# Sequence (P35346 whole entry): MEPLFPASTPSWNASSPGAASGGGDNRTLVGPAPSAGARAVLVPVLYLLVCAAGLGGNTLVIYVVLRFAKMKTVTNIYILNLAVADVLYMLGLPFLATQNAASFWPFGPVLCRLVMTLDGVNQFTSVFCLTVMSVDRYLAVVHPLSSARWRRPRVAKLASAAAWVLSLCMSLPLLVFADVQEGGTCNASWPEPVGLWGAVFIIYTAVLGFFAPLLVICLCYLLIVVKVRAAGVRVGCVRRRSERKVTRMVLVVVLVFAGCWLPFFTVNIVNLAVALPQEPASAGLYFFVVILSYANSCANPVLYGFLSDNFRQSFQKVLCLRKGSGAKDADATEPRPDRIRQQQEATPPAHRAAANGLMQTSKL
# method: Displacement of [125I]somatostatin-14 (Tyr11) from human SSTR5 expressed in CHO dhfr cell membranes after 60 mins by TopCount scintillation counting method
property name: IC50 (µM)
Enter your answer as a number in µM; do not include the unit.

IN: Please list IC50 recorded for the compound Cc1cc(F)ccc1N1CCN(C(=O)N[C@@H](C(=O)Nc2cc(CN(C)C)ccc2OC(F)(F)F)[C@@H](C)c2c[nH]c3ccccc23)CC1=O
OUT: 1.7

----------
# method: Tmax in Sprague-Dawley rat at 1 mg/kg, po after 1 hr
# Format: ADME, organism-based
# experimental context: in vivo
property name: Tmax (min)
Enter your answer as a number in min; do not include the unit.

IN: Please list Tmax recorded for the compound Cc1cc(F)ccc1N1CCN(C(=O)N[C@@H](C(=O)Nc2cc(CN(C)C)ccc2OC(F)(F)F)[C@@H](C)c2c[nH]c3ccccc23)CC1=O
OUT: 49.8

----------
# method: Lipophilicity, log D of the compound
# Type: physicochemical
# experimental context: octanol/water
Please provide measured logD for the entries that follow.
Just the number, please, no unit after it.

IN: Please list logD recorded for the compound Cc1cc(F)ccc1N1CCN(C(=O)N[C@@H](C(=O)Nc2cc(CN(C)C)ccc2OC(F)(F)F)[C@@H](C)c2c[nH]c3ccccc23)CC1=O
OUT: 2.95

IN: Please list logD recorded for the compound CCOc1ccc(CN(C)C)cc1NC(=O)[C@H](NC(=O)N1CCC(C(=O)CC(C)C)CC1)[C@@H](C)c1c[nH]c2ccccc12
OUT: 2.01

IN: Please list logD recorded for the compound CCOc1ccc(CN(C)C)cc1NC(=O)[C@H](NC(=O)N1CCN(c2ccc(F)cc2C)C(=O)C1)[C@@H](C)c1c[nH]c2ccccc12
OUT: 1.86

IN: Please list logD recorded for the compound CC(=O)c1ccc(CN(C)C)cc1NC(=O)[C@H](NC(=O)N1CCC(C(=O)C2CCC2)CC1)[C@@H](C)c1c[nH]c2ccccc12
OUT: 1.5

----------
# method: Oral bioavailability in Sprague-Dawley rat at 1 mg/kg after 1 hr
# Assay type: ADME, organism-based
# experimental context: in vivo
property name: bioavailability (%)
Enter your answer as a number in %; do not include the unit.

IN: Please list bioavailability recorded for the compound Cc1cc(F)ccc1N1CCN(C(=O)N[C@@H](C(=O)Nc2cc(CN(C)C)ccc2OC(F)(F)F)[C@@H](C)c2c[nH]c3ccccc23)CC1=O
OUT: 5.8

----------
# method: AUC in Sprague-Dawley rat at 0.3 mg/kg, iv after 1 hr
# Assay type: ADME, organism-based
# Design: time < 1 hr, dose 0.3 mg/kg, route intravenous
# experimental context: in vivo
property name: AUC at 1 h (ng·h/mL)
Enter your answer as a number in ng·h/mL; do not include the unit.

IN: Please list AUC at 1 h recorded for the compound Cc1cc(F)ccc1N1CCN(C(=O)N[C@@H](C(=O)Nc2cc(CN(C)C)ccc2OC(F)(F)F)[C@@H](C)c2c[nH]c3ccccc23)CC1=O
OUT: 119

----------
# method: Lipophilicity, log D of the compound
# Type: physicochemical
# experimental context: octanol/water
property name: logD
Just the number, please, no unit after it.

IN: Please list logD recorded for the compound CCOc1ccc(CN(C)C)cc1NC(=O)[C@H](NC(=O)N1CCN(C(=O)C(C)(C)C)CC1)[C@@H](C)c1c[nH]c2ccccc12
OUT: 1.09

IN: Please list logD recorded for the compound CC(=O)c1ccc(CN(C)C)cc1NC(=O)[C@H](NC(=O)N1CCC(C(=O)c2cccs2)CC1)[C@@H](C)c1c[nH]c2ccccc12
OUT: 1.84

IN: Please list logD recorded for the compound CCOc1ccc(CN(C)C)cc1NC(=O)[C@H](NC(=O)N1CCC(C(=O)c2ccco2)CC1)[C@@H](C)c1c[nH]c2ccccc12
OUT: 1.14

IN: Please list logD recorded for the compound C[C@@H](c1c[nH]c2ccccc12)[C@@H](NC(=O)N1CCN(c2ccc(F)cc2)C(=O)C1)C(=O)Nc1cc(CN(C)C)ccc1OC(F)(F)F
OUT: 2.73

IN: Please list logD recorded for the compound CC(=O)c1ccc(CN(C)C)cc1NC(=O)[C@H](NC(=O)N1CCC(C(=O)C(C)C)CC1)[C@@H](C)c1c[nH]c2ccccc12
OUT: 1.44

IN: Please list logD recorded for the compound C[C@@H](c1c[nH]c2ccccc12)[C@@H](NC(=O)N1CCN(C(=O)C(C)(C)C)CC1)C(=O)Nc1cc(CN(C)C)ccc1OC(F)(F)F
OUT: 2.18

IN: Please list logD recorded for the compound CC(=O)c1ccc(CN(C)C)cc1NC(=O)[C@H](NC(=O)N1CCN(c2ccc(F)cc2C)C(=O)C1)[C@@H](C)c1c[nH]c2ccccc12
OUT: 1.81

----------
# method: Lipophilicity, log D of the compound
# Type: physicochemical
# experimental context: octanol/water
property name: logD
Just the number, please, no unit after it.

IN: Please list logD recorded for the compound CCOc1ccc(CN(C)C)cc1NC(=O)[C@H](NC(=O)N1CCN(C(=O)C2CCC2)CC1)[C@@H](C)c1c[nH]c2ccccc12
OUT: 0.73

IN: Please list logD recorded for the compound CC(=O)c1ccc(CN(C)C)cc1NC(=O)[C@H](NC(=O)N1CCN(C(=O)C2CCC2)CC1)[C@@H](C)c1c[nH]c2ccccc12
OUT: 1.04

IN: Please list logD recorded for the compound CCOc1ccc(CN(C)C)cc1NC(=O)[C@H](NC(=O)N1CCN(c2ccc(F)cc2)CC1)[C@@H](C)c1c[nH]c2ccccc12
OUT: 2.22

IN: Please list logD recorded for the compound CC(=O)c1ccc(CN(C)C)cc1NC(=O)[C@H](NC(=O)N1CCN(c2ccc(F)cc2)C(=O)C1)[C@@H](C)c1c[nH]c2ccccc12
OUT: 1.59

IN: Please list logD recorded for the compound CCOc1ccc(CN(C)C)cc1NC(=O)[C@H](NC(=O)N1CCC(C(=O)C(C)C)CC1)[C@@H](C)c1c[nH]c2ccccc12
OUT: 1.5

IN: Please list logD recorded for the compound CCOc1ccc(CN(C)C)cc1NC(=O)[C@H](NC(=O)N1CCC(c2ccccc2)CC1)[C@@H](C)c1c[nH]c2ccccc12
OUT: 3

IN: Please list logD recorded for the compound CCOc1ccc(CN(C)C)cc1NC(=O)[C@H](NC(=O)N1CCC(C(=O)c2nccs2)CC1)[C@@H](C)c1c[nH]c2ccccc12
OUT: 1.35

IN: Please list logD recorded for the compound CCOc1ccc(CN(C)C)cc1NC(=O)[C@H](NC(=O)N1CCC(C(=O)c2cccs2)CC1)[C@@H](C)c1c[nH]c2ccccc12
OUT: 1.89

IN: Please list logD recorded for the compound CCOc1ccc(CN(C)C)cc1NC(=O)[C@H](NC(=O)N1CCN(c2ccc(F)cc2)C(=O)C1)[C@@H](C)c1c[nH]c2ccccc12
OUT: 1.65

IN: Please list logD recorded for the compound CC(=O)c1ccc(CN(C)C)cc1NC(=O)[C@H](NC(=O)N1CCN(C(=O)C(C)(C)C)CC1)[C@@H](C)c1c[nH]c2ccccc12
OUT: 0.68

IN: Please list logD recorded for the compound CCOc1ccc(CN(C)C)cc1NC(=O)[C@H](NC(=O)N1CCC(C(=O)C2CCC2)CC1)[C@@H](C)c1c[nH]c2ccccc12
OUT: 1.55

IN: Please list logD recorded for the compound CCOc1ccc(CN(C)C)cc1NC(=O)[C@H](NC(=O)N1CCC(C(=O)c2ccccn2)CC1)[C@@H](C)c1c[nH]c2ccccc12
OUT: 1.57

----------
# tested target: Somatostatin receptor type 1 (Homo sapiens, UniProt P30872)
# Sequence (P30872 whole entry): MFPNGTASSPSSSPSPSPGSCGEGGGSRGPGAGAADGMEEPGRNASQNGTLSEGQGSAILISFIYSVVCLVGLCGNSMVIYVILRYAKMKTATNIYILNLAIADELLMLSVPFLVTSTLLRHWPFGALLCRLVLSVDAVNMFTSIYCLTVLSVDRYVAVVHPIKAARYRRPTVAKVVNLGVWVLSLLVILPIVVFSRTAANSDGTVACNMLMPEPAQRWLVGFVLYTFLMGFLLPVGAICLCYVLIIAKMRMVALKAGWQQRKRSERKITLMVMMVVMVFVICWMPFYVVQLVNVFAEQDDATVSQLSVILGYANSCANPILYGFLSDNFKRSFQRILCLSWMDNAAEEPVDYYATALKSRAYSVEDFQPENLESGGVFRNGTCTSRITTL
# method: Displacement of [125I]somatostatin-14 (Tyr11) from human SSTR1 expressed in CHO dhfr cell membranes after 60 mins by TopCount scintillation counting method
property name: pIC50
Answer as the number alone; pIC50 is minus log10 of concentration in mol/L.

IN: Please list pIC50 recorded for the compound Cc1cc(F)ccc1N1CCN(C(=O)N[C@@H](C(=O)Nc2cc(CN(C)C)ccc2OC(F)(F)F)[C@@H](C)c2c[nH]c3ccccc23)CC1=O
OUT: 5.29

----------
# tested target: UniProt:P30874
# Sequence (P30874 whole entry): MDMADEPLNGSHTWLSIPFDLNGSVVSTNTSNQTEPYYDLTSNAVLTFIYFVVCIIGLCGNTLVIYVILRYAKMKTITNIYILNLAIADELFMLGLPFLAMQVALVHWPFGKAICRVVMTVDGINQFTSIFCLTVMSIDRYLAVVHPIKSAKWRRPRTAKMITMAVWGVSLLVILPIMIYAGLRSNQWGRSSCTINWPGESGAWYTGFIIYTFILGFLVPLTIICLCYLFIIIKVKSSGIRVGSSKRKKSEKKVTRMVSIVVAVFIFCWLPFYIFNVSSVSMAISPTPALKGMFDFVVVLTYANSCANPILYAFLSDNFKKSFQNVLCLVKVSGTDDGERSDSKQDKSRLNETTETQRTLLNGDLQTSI
# method: Displacement of [125I]somatostatin-14 (Tyr11) from human SSTR2 expressed in CHO dhfr cell membranes after 60 mins by TopCount scintillation counting method
Please provide measured IC50 for the entries that follow.
Enter your answer as a number in nM; do not include the unit.

IN: Provide IC50, tested on UniProt:P30874, for CC(=O)c1ccc(CN(C)C)cc1NC(=O)[C@H](NC(=O)N1CCN(C(=O)C(C)(C)C)CC1)[C@@H](C)c1c[nH]c2ccccc12 .
OUT: 0.98

IN: Provide IC50, tested on UniProt:P30874, for CCOc1ccc(CN(C)C)cc1NC(=O)[C@H](NC(=O)N1CCC(C(=O)c2ccco2)CC1)[C@@H](C)c1c[nH]c2ccccc12 .
OUT: 2.3

IN: Provide IC50, tested on UniProt:P30874, for CC(=O)c1ccc(CN(C)C)cc1NC(=O)[C@H](NC(=O)N1CCN(c2ccc(F)cc2C)C(=O)C1)[C@@H](C)c1c[nH]c2ccccc12 .
OUT: 0.24

IN: Provide IC50, tested on UniProt:P30874, for CCOc1ccc(CN(C)C)cc1NC(=O)[C@H](NC(=O)N1CCN(C(=O)C(C)(C)C)CC1)[C@@H](C)c1c[nH]c2ccccc12 .
OUT: 2.3

IN: Provide IC50, tested on UniProt:P30874, for CC(=O)c1ccc(CN(C)C)cc1NC(=O)[C@H](NC(=O)N1CCN(c2ccc(F)cc2)C(=O)C1)[C@@H](C)c1c[nH]c2ccccc12 .
OUT: 0.31

IN: Provide IC50, tested on UniProt:P30874, for CC(=O)c1ccc(CN(C)C)cc1NC(=O)[C@H](NC(=O)N1CCC(C(=O)c2cccs2)CC1)[C@@H](C)c1c[nH]c2ccccc12 .
OUT: 0.68

IN: Provide IC50, tested on UniProt:P30874, for C[C@@H](c1c[nH]c2ccccc12)[C@@H](NC(=O)N1CCN(C(=O)C(C)(C)C)CC1)C(=O)Nc1cc(CN(C)C)ccc1OC(F)(F)F .
OUT: 2.8

IN: Provide IC50, tested on UniProt:P30874, for CC(=O)c1ccc(CN(C)C)cc1NC(=O)[C@H](NC(=O)N1CCN(C(=O)C2CCC2)CC1)[C@@H](C)c1c[nH]c2ccccc12 .
OUT: 1.8

All values here come from ChEMBL document CHEMBL4177595.
